Measured values drawn from patent US8815872B2 for this set.

- System Name: EphB2(h) (Homo sapiens, UniProt P29323)
- Construct: purchased Caliper Life Sciences
- Sequence (P29323 19-1055): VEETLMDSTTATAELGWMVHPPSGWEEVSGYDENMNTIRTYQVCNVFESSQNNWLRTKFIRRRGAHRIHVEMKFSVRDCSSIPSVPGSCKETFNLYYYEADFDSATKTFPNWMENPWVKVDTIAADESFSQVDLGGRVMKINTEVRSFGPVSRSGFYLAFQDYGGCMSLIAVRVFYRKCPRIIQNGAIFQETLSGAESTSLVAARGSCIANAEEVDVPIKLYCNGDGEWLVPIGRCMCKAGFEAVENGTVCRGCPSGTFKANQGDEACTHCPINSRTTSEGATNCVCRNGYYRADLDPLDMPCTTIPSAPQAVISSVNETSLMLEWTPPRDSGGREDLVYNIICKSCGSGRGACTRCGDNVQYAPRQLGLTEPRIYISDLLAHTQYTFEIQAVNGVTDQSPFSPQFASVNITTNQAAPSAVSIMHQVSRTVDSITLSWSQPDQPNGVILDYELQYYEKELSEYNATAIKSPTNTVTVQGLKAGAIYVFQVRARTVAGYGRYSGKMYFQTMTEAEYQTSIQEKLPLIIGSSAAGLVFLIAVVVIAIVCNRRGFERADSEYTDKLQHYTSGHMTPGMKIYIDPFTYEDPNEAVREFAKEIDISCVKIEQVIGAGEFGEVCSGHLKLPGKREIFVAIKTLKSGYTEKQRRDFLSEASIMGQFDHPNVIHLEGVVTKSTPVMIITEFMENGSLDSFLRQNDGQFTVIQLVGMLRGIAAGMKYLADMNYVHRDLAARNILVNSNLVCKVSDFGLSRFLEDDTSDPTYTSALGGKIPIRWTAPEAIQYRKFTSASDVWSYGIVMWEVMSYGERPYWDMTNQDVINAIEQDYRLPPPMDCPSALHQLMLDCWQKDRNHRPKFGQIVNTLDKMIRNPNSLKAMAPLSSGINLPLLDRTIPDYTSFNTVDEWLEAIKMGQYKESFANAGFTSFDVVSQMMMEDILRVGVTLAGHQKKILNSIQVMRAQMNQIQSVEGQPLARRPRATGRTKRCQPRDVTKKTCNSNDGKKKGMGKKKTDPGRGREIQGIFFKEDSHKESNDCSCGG
- Test Description: Other kinases, single-concentration inhibition (Table 3)
- Format: biochemical
- Measurement Setup: 1 μM
Metric: % inhibition EphB2(h) (%)
Just the number please, in %, no unit attached.

The reported value for CC[C@@H]1C[C@@H]2/C=C\COc3cccc(c3)Nc3ncc(F)c(n3)N[C@H]2[C@H]1C(N)=O (single isomer, unassigned) in terms of % inhibition EphB2(h) is 80

The reported value for N#Cc1ccc2cc1NC(=O)CS[C@@H]1C[C@@H]3C[C@H]1[C@@H](Nc1nc(ncc1F)N2)[C@H]3C(N)=O in terms of % inhibition EphB2(h) is 112

The reported value for NC(=O)[C@H]1[C@H]2C[C@H]3[C@H]1Nc1nc(ncc1F)Nc1cccc(c1)OCCS[C@@H]3C2 in terms of % inhibition EphB2(h) is 27

The reported value for NC(=O)[C@H]1[C@H]2C[C@H]3[C@H]1Nc1nc(ncc1F)Nc1cccc(c1)NC(=O)CS[C@@H]3C2 in terms of % inhibition EphB2(h) is 67

The reported value for NC(=O)[C@H]1[C@H]2C[C@H]3[C@H]1Nc1nc(ncc1F)Nc1cccc(c1)CSS[C@@H]3C2 in terms of % inhibition EphB2(h) is 5

The reported value for C=C[C@@H]1C[C@@H]2/C=C/COc3cccc(c3)Nc3ncc(F)c(n3)N[C@H]2[C@H]1C(N)=O (single isomer, unassigned) in terms of % inhibition EphB2(h) is 94

----------
- System Name: Pyk2(h) (Homo sapiens)
- Construct: purchased Caliper Life Sciences
- Sequence (Q14289 whole entry): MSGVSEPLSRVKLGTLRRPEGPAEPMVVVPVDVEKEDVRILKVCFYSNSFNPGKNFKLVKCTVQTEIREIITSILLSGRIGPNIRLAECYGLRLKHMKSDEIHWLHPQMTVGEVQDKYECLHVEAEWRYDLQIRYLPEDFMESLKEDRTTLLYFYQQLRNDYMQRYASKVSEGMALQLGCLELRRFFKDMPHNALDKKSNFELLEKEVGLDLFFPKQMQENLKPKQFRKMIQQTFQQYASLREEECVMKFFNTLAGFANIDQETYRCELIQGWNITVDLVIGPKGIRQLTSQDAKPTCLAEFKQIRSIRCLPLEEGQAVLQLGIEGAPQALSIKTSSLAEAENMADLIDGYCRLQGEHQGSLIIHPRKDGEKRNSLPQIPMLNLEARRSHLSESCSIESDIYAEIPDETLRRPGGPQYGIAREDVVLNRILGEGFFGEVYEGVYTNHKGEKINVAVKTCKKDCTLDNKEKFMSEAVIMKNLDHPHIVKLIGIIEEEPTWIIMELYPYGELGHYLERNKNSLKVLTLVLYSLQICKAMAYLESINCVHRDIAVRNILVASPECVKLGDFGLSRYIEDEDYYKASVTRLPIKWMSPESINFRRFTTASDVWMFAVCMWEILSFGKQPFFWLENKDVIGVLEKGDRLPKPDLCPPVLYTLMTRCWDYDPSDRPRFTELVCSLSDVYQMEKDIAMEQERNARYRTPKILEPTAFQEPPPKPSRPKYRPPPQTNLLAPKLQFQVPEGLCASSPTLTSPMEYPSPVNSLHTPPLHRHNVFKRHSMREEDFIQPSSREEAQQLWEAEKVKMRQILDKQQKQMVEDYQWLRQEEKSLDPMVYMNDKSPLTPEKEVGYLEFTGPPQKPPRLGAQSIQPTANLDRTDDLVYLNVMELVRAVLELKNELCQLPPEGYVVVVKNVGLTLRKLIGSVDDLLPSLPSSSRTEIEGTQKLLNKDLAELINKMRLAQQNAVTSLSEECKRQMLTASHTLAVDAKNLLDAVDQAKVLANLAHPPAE
- Test Description: Other kinases, single-concentration inhibition (Table 3)
- Assay type: biochemical
- Measurement Setup: 1 μM
Metric: % inhibition Pyk2(h) (%)
Just the number please, in %, no unit attached.

The reported value for CN1CCN(c2ccc3cc2NC(=O)CS[C@@H]2C[C@@H]4C[C@H]2[C@@H](Nc2nc(ncc2F)N3)[C@H]4C(N)=O)CC1 in terms of % inhibition Pyk2(h) is 31

The reported value for NC(=O)[C@H]1[C@H]2C[C@H]3[C@H]1Nc1nc(ncc1F)Nc1cccc(c1)CSS[C@@H]3C2 in terms of % inhibition Pyk2(h) is 13

The reported value for C=C[C@@H]1C[C@@H]2/C=C/COc3cccc(c3)Nc3ncc(F)c(n3)N[C@H]2[C@H]1C(N)=O (single isomer, unassigned) in terms of % inhibition Pyk2(h) is 94

----------
- System Name: kinases (not incl. Aurora)
- Test Description: Kinase inhibition profile (not incl. Aurora)
- Type: biochemical
- Measurement Setup: at 1 μM; hit means >79% inhibition
Provide the recorded Kinase Inhibition Profile (not incl. Aurora) # kinases hit/# kinases tested for the entries that follow.

The reported value for NC(=O)[C@H]1[C@@H]2CC3CNC(=O)c4cccc(c4)Nc4ncc(F)c(n4)N[C@@H]1[C@@H]3C2 (stereo partly shown) [drawing 259] in terms of Kinase Inhibition Profile (not incl. Aurora) # kinases hit/# kinases tested is 1/76 at 1 μM

The reported value for NC(=O)[C@H]1[C@@H]2C[C@H]3CNC(=O)Cn4cc(cn4)Nc4ncc(F)c(n4)N[C@@H]1[C@@H]3C2 in terms of Kinase Inhibition Profile (not incl. Aurora) # kinases hit/# kinases tested is 2/73 at 1 μM

The reported value for NC(=O)[C@H]1[C@H]2C[C@H]3[C@H]1Nc1nc(ncc1F)Nc1cccc(c1)OCCS[C@@H]3C2 [drawing 219] in terms of Kinase Inhibition Profile (not incl. Aurora) # kinases hit/# kinases tested is 11/36 at 1 μM

The reported value for CN1CCN(c2ccc3cc2C(=O)NC[C@@H]2C[C@@H]4C[C@H]2[C@@H](Nc2nc(ncc2F)N3)[C@H]4C(N)=O)CC1 in terms of Kinase Inhibition Profile (not incl. Aurora) # kinases hit/# kinases tested is 0/73 at 1 μM
